- Assayed Target: Neu5Ac(a2-3)Gal(b1-4)GlcNAc(b1-3)Gal(b1-4)GlcNAc(b1-3)GalNAc
- Test Protocol: glycan array binding signal (z-score within array); higher = stronger binding
- Measurement Context: glycan notation: IUPAC condensed, linker removed
The sample as a whole holds a higher share of the strongest signals than the screen did.
Metric Name: glycan array binding signal (z-score)
Just the number, please, no unit attached.

[
  {
    "Binder": "WGA (Triticum vulgare) (protein) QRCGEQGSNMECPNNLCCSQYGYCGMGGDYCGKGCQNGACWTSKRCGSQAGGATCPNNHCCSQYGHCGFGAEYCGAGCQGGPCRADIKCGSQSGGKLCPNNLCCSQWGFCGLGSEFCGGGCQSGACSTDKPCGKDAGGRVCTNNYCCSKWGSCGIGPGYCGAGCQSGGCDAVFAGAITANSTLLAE",
    "Experimental Value": -0.353
  },
  {
    "Binder": "ERGIC1-EDTA (Homo sapiens), Q969X5 (protein) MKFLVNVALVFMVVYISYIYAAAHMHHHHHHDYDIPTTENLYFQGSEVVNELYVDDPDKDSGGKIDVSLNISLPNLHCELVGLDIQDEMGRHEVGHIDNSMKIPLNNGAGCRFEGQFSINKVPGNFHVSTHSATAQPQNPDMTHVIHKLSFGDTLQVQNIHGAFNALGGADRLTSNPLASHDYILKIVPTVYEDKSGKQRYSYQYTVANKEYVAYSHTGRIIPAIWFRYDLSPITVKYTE",
    "Experimental Value": -0.406
  },
  {
    "Binder": "XTP3-B-MRH1 (Homo sapiens), Q96DZ1 (protein) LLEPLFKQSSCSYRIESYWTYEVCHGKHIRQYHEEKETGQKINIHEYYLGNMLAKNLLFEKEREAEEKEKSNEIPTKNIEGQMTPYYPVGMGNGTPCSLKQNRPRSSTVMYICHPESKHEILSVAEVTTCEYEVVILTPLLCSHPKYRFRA",
    "Experimental Value": 3.41
  }
]

Requested field: glycan array binding signal (z-score). Item: Gal 7 (Homo sapiens) (protein) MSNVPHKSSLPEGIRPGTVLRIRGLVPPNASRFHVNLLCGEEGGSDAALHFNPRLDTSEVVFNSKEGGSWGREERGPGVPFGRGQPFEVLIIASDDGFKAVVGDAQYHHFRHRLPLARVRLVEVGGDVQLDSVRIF
-0.259

// next record SP15308A-bot-339-19-339 (Bacteroides ovatus) (protein) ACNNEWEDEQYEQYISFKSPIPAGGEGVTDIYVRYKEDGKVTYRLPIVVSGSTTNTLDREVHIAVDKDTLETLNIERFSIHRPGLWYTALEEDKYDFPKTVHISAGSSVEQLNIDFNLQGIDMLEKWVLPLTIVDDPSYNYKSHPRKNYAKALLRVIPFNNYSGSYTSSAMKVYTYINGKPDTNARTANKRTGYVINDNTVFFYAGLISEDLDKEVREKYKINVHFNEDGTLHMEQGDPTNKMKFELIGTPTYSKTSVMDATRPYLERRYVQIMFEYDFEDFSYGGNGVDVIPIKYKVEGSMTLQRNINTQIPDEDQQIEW
-0.51

// next record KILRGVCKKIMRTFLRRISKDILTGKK [NK2 (Sus scrofa)]
2.37
